- test-system: Factor D (Homo sapiens (Human), UniProt P00746)
- Sequence (P00746 26-253): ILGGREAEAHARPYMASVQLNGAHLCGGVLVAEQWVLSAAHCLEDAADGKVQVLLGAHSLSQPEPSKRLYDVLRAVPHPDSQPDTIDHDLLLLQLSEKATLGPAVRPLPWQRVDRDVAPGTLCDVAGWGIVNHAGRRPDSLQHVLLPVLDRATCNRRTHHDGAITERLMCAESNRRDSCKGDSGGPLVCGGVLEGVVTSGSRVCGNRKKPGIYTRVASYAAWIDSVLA
pIC50: −log10 of the molar value.

compound	pIC50
NCc1cccc(-c2ccc3occ(COc4ccccc4CCC(=O)O)c3c2)c1 [Compound 2d]	5.00 to 6.00
NCc1cccc(-c2ccc3snc(COc4ccccc4CC(=O)O)c3c2)c1 [Compound 93e]	> 6.00
COc1ccc(CC(=O)O)c(OCc2c(C(C)=O)oc3ccc(-c4cccc(CN)c4)cc23)c1 [Compound 218c]	> 6.00
COc1ccc(CC(=O)O)c(OCc2nn(C(C)C)c3ccc(-c4cccc(CN)c4)cc23)c1 [Compound 213c]	> 6.00
COc1cc(-c2cccc(CN)c2)cc2c(COc3cc(C(F)(F)F)ccc3CC(=O)O)coc12 [Compound 269c]	> 6.00
COc1ccc(CC(=O)O)c(OCc2c(C(C)C)oc3c(NCC4CC4)cc(-c4cccc(CN)c4)cc23)c1 [Compound 295h]	> 6.00
COc1ccc(CC(=O)O)c(OCc2c(C)oc3ccc(-c4cccc([C@H](N)CO)c4)cc23)c1 [Compound 241c]	> 6.00
NCc1cc(F)cc(-c2ccc3occ(Cc4cccc(CC(=O)O)c4O)c3c2)c1 [Compound 40d]	5.00 to 6.00
